Attribution: PubChem BioAssay AID1963974

System: 648629-189-R-J1-PDC spheroids with HUVEC/MSC, viability
experiment-notes: Anticancer human tumor 648629-189-R-J1-PDC patient-derived bladder carcinoma cell line growth inhibition [PI3K]
study-conditions: second compound 3.16 µM; first compound 10 µM; stronger effect = lower value
measured-property: viability, T/C (%)
Express your answer in %, writing the number without its unit.

A selection of reference data follows.
CCCS(=O)(=O)Nc1ccc(F)c(C(=O)c2c[nH]c3ncc(-c4ccc(Cl)cc4)cc23)c1F + Cc1nc(NC(=O)N2CCCC2C(N)=O)sc1-c1ccnc(C(C)(C)C(F)(F)F)c1    0.64
Cn1nccc1Nc1nccc(-c2ccn(C(CO)c3ccc(Cl)c(F)c3)c(=O)c2)n1 (stereo not drawn) + CC(Nc1ncnc2nc[nH]c12)c1cc2cccc(Cl)c2c(=O)n1-c1ccccc1    73.6

Let's switch to this compound now.
Fill blank: measured viability, T/C of the compound C[C@@H](NC(=O)c1ncnc(N)c1Cl)c1ncc(C(=O)Nc2cc(C(F)(F)F)c(Cl)cn2)s1 + Cc1nc(NC(=O)N2CCCC2C(N)=O)sc1-c1ccnc(C(C)(C)C(F)(F)F)c1 is ____.
54.7

* * *

Tested on: 648629-189-R-J1-PDC spheroids with HUVEC/MSC, viability
experiment-notes: Anticancer human tumor 648629-189-R-J1-PDC cell line growth inhibition [PI3K];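 further: spheroids exposed to agents for seven days before reading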;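 on viability, T/C: percent of vehicle control luminescence where 100% = DMSO treated spheroids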
study-conditions: second compound 3.16 µM; first compound 0.1 µM; stronger effect = lower value
Here the recorded viability, T/C is given for each entry.
Only the number, expressed in %, is required.

Below, each entry is followed by its recorded viability, T/C result.
CC(Cn1ccc(-c2ccc(C#N)c(Cl)c2)n1)NC(=O)c1cc(C(C)O)[nH]n1 (stereo not given) + CC(Nc1ncnc2nc[nH]c12)c1cc2cccc(Cl)c2c(=O)n1-c1ccccc1    96
Cn1ncc(Cl)c1-c1cc(C(=O)NC(CN)Cc2cccc(F)c2)sc1Cl (stereo not given) + CC(Nc1ncnc2nc[nH]c12)c1cc2cccc(Cl)c2c(=O)n1-c1ccccc1    93.8
Cn1nccc1Nc1nccc(-c2ccn(C(CO)c3ccc(Cl)c(F)c3)c(=O)c2)n1 (stereo not given) + Cc1nc(NC(=O)N2CCCC2C(N)=O)sc1-c1ccnc(C(C)(C)C(F)(F)F)c1    63.1
CC(C)NCC(C(=O)N1CCN(c2ncnc3c2C(C)CC3O)CC1)c1ccc(Cl)cc1 (stereo not given) + CC(Nc1ncnc2nc[nH]c12)c1cc2cccc(Cl)c2c(=O)n1-c1ccccc1    91.3

// moving on: another record for viability, T/C
Return reported viability, T/C; argument: CC1(C)CCC(CN2CCN(c3ccc(C(=O)NS(=O)(=O)c4ccc(NCC5CCOCC5)c([N+](=O)[O-])c4)c(Oc4cnc5[nH]ccc5c4)c3)CC2)=C(c2ccc(Cl)cc2)C1 + Cc1nc(NC(=O)N2CCCC2C(N)=O)sc1-c1ccnc(C(C)(C)C(F)(F)F)c1
57

* * *

Recorded viability, T/C values for a group of compounds are listed next.
Tested on: 648629-189-R-J1-PDC spheroids with HUVEC/MSC, viability
experiment-notes: Anticancer human tumor 648629-189-R-J1-PDC cell line growth inhibition [PI3K];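 further: spheroids exposed to agents for seven days before reading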;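 on viability, T/C: percent of vehicle control luminescence where 100% = DMSO treated spheroids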
study-conditions: second compound 1 µM; first compound 0.01 µM; stronger effect = lower value
# output: bare number, implied unit %

Cn1ncnc1[C@H]1c2n[nH]c(=O)c3cc(F)cc(c23)N[C@@H]1c1ccc(F)cc1 + CC(Nc1ccc2c(c1)OCCn1cc(N3C(=O)OCC3C(F)F)nc1-2)C(N)=O    66
CCN1CCN(Cc2ccc(Nc3ncc(F)c(-c4cc(F)c5nc(C)n(C(C)C)c5c4)n3)nc2)CC1 + CC(Nc1ncnc2nc[nH]c12)c1cc2cccc(Cl)c2c(=O)n1-c1ccccc1    92.5
Cn1ncnc1[C@H]1c2n[nH]c(=O)c3cc(F)cc(c23)N[C@@H]1c1ccc(F)cc1 + Cc1nc(NC(=O)N2CCCC2C(N)=O)sc1-c1ccnc(C(C)(C)C(F)(F)F)c1    74.9
CC(=O)c1c(C)c2cnc(Nc3ccc(N4CCNCC4)cn3)nc2n(C2CCCC2)c1=O + COc1c(OCCCN2CCOCC2)ccc2c3n(c(=NC(=O)c4cnc(N)nc4)nc12)CCN3    4

Consider the additional compound presented here.
I'd like to know its viability, T/C. The compound in question is CC(=O)c1c(C)c2cnc(Nc3ccc(N4CCNCC4)cn3)nc2n(C2CCCC2)c1=O + CC(Nc1ncnc2nc[nH]c12)c1cc2cccc(Cl)c2c(=O)n1-c1ccccc1
102

* * *

System: 648629-189-R-J1-PDC spheroids with HUVEC/MSC, viability
experiment-notes: Anticancer human tumor 648629-189-R-J1-PDC cell line growth inhibition [PI3K];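 further: spheroids exposed to agents for seven days before reading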
study-conditions: curve of first compound; second compound 0.00316 µM
pIC50: −log10 of the molar value.
measured-property: pIC50

Solved cases (2 shown):
Cn1ncc(Cl)c1-c1cc(C(=O)NC(CN)Cc2cccc(F)c2)sc1Cl (stereo not drawn) + COc1c(OCCCN2CCOCC2)ccc2c3n(c(=NC(=O)c4cnc(N)nc4)nc12)CCN3    6.21
CNC(=O)c1ccc(N2C(=S)N(c3ccc(C#N)c(C(F)(F)F)c3)C(=O)C2(C)C)cc1F + CC(Nc1ccc2c(c1)OCCn1cc(N3C(=O)OCC3C(F)F)nc1-2)C(N)=O    < 5.00

// moving on: another record for pIC50
Quick one: pIC50 of CC(=O)c1c(C)c2cnc(Nc3ccc(N4CCNCC4)cn3)nc2n(C2CCCC2)c1=O + CC(Nc1ccc2c(c1)OCCn1cc(N3C(=O)OCC3C(F)F)nc1-2)C(N)=O ?
< 7.00

* * *

Catalogue of viability, T/C values
Tested on: 648629-189-R-J1-PDC spheroids with HUVEC/MSC, viability
experiment-notes: Anticancer human tumor 648629-189-R-J1-PDC cell line growth inhibition [PI3K];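 further: spheroids exposed to agents for seven days before reading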;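 on viability, T/C: percent of vehicle control luminescence where 100% = DMSO treated spheroids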
study-conditions: second compound 0.1 µM; first compound 0.0949 µM; stronger effect = lower value
Value expressed in %; do not type the unit.

Record excerpt, results attached:
Cn1cnc2c(F)c(Nc3ccc(Br)cc3Cl)c(C(=O)NOCCO)cc21 + Cc1nc(NC(=O)N2CCCC2C(N)=O)sc1-c1ccnc(C(C)(C)C(F)(F)F)c1    98.1
Cn1cnc2c(F)c(Nc3ccc(Br)cc3Cl)c(C(=O)NOCCO)cc21 + COc1c(OCCCN2CCOCC2)ccc2c3n(c(=NC(=O)c4cnc(N)nc4)nc12)CCN3    59
Cn1cnc2c(F)c(Nc3ccc(Br)cc3Cl)c(C(=O)NOCCO)cc21 + CC(Nc1ccc2c(c1)OCCn1cc(N3C(=O)OCC3C(F)F)nc1-2)C(N)=O    82.6

Now let's try a different one.
// query viability, T/C value for entry Cn1cnc2c(F)c(Nc3ccc(Br)cc3Cl)c(C(=O)NOCCO)cc21 + CC(Nc1ncnc2nc[nH]c12)c1cc2cccc(Cl)c2c(=O)n1-c1ccccc1
102

* * *

System: 648629-189-R-J1-PDC spheroids with HUVEC/MSC, viability
experiment-notes: Anticancer human tumor 648629-189-R-J1-PDC cell line growth inhibition [PI3K];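 further: spheroids exposed to agents for seven days before reading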;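 on viability, T/C: percent of vehicle control luminescence where 100% = DMSO treated spheroids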
study-conditions: compound 0.0316 µM; stronger effect = lower value
measured-property: viability, T/C

Examples with answers:
Cc1nc(NC(=O)N2CCCC2C(N)=O)sc1-c1ccnc(C(C)(C)C(F)(F)F)c1 (stereo not given)    103% [middle of 8 runs]
C[C@@H](NC(=O)c1ncnc(N)c1Cl)c1ncc(C(=O)Nc2cc(C(F)(F)F)c(Cl)cn2)s1    105% [middle of 4 runs]
COc1c(OCCCN2CCOCC2)ccc2c3n(c(=NC(=O)c4cnc(N)nc4)nc12)CCN3    97.5% [middle of 8 runs]
C=CC(=O)N1CCN(c2nc(=O)n(-c3c(C)ccnc3C(C)C)c3nc(-c4c(O)cccc4F)c(F)cc23)C(C)C1 (stereo not given)    112% [middle of 4 runs]
Cn1nccc1Nc1nccc(-c2ccn(C(CO)c3ccc(Cl)c(F)c3)c(=O)c2)n1 (stereo not given)    107% [middle of 4 runs]

Which measured viability, T/C value corresponds to Cn1ncc(Cl)c1-c1cc(C(=O)NC(CN)Cc2cccc(F)c2)sc1Cl (stereo not given) ?
111% [middle of 4 runs]

Name the reported viability, T/C value associated with the molecule CC(Nc1ccc2c(c1)OCCn1cc(N3C(=O)OCC3C(F)F)nc1-2)C(N)=O (stereo not given)
106% [middle of 8 runs]

Which measured viability, T/C value corresponds to `Cn1ncnc1[C@H]1c2n[nH]c(=O)c3cc(F)cc(c23)N[C@@H]1c1ccc(F)cc1` ?
73.1% [middle of 4 runs]

# input molecule: CC(Nc1ncnc2nc[nH]c12)c1cc2cccc(Cl)c2c(=O)n1-c1ccccc1 (stereo not given) ; wanted: its viability, T/C
104% [middle of 8 runs]

// query viability, T/C value for entry CC1(C)CCC(Nc2ncc(C(F)(F)F)c(-c3c[nH]c4c(P(C)(C)=O)c(C#N)ccc34)n2)CN1 (stereo not given)
30.3% [middle of 4 runs]
